# TARGET_ENTITY: NK2R WT (human TACR2) (Homo sapiens)
# Construct: host or cells: COS7 cells, transient calcium-precipitation transfection
# Sequence (P21452 1-398): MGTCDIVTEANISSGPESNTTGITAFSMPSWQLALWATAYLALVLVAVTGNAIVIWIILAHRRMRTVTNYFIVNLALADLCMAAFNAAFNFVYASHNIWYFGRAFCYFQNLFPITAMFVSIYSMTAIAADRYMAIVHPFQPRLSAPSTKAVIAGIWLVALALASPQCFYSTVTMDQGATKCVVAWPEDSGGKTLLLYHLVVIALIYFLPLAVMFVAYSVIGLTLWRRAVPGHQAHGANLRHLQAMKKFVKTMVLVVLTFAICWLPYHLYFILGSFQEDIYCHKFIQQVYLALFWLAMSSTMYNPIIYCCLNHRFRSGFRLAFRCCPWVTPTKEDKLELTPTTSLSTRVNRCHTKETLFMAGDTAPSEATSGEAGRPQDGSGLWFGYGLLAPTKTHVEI
# TEST: IP3 accumulation assay (Gq activation), NK2R
# Type: cell-based
REPORTED_PROPERTY: pEC50
Scale: pEC50 equals -log10([C]), with [C] in mol/L.

Ask: So what's the measured pEC50 for this one? CSCC[C@H](NC(=O)[C@H](CC(C)C)NC(=O)CNC(=O)[C@@H](NC(=O)[C@H](Cc1ccccc1)NC(=O)[C@H](CO)NC(=O)[C@@H](N)CC(=O)O)C(C)C)C(N)=O
Result: 8.00
